# Tested on: SK-MEL-28
# Measurement Protocol: NCI tumour cell line growth inhibition, 48 h
Activity calls are given as the source filed them. No stated cut-off is given here; in the data, active = GI50 up to about 1.1 µM and inactive = higher.
Choose the fitting class; nothing outside True = active, False = inactive is accepted.

Test call for this molecule, please: O=c1c(Sc2c(SCSc3cnc4ccccc4c3Sc3c[nH]c4ccccc4c3=O)cnc3ccccc23)c[nH]c2ccccc12
False

Hello, I am checking results. What call was entered for COc1cc2c(c3c1c(=O)c1ccccc1n3C)C=CC1(CCCCC1)O2 ?
False

Kindly provide the recorded test outcome for the following molecule: CCOc1cc2c(cc1O)CC[C@@H]1[C@@H]2CC[C@]2(C)[C@@H](O)CC[C@@H]12
True

State the result this test recorded for C/C(Cl)=N/OC(=O)Nc1ccc(F)c([N+](=O)[O-])c1 .
False

Any idea what this test logged for COc1ccc(/N=N/c2c(C)c(C#N)c(=S)n(C3OC(COC(C)=O)C(OC(C)=O)C(OC(C)=O)C3OC(C)=O)c2C)cc1 (stereo not drawn) ?
False

Outcome? Clc1cc2ncn(C3CCCO3)c2cc1Cl (stereo not drawn)
False

What was the test verdict on O=C1/C(=C/c2cccc(Br)c2)Cc2ccccc21 ?
False

Which result was noted for this molecule in the test: CC1(C)N=C(N)N=C(N)N1c1cccc(C(=O)Nc2ccc(S(=O)(=O)F)cc2)c1
False

Lab log entry: CCCCNC(=O)c1cc2c(cc1Cl)Sc1nccn1S2(=O)=O — outcome as called in the assay?
False

# outcome recorded in this test, key = CC1=C(/C=C/C(C)=C/C=C/C(C)=C/C=C/C=C(C)/C=C/C=C(C)/C=C/C=C(C)/C=C/C=C(\C)C(=O)O)C(C)(C)CCC1
False

Which result was noted for this molecule in the test: O=C1CC(NC2CC(=O)c3c(Br)sc(Br)c32)c2c(Br)sc(Br)c21 (stereo not drawn)
False

Recorded test call requested for COC(=O)CCC(=O)Nc1cc(Cl)ccc1Cl
False

What call does the record list for COC(=O)[C@]1(C)C(OC)=CC(=O)C2C1[C@H]1CCC[C@@H]21 (stereo partly drawn) ?
False

###

# Tested on: NCI-H522
# Measurement Protocol: NCI tumour cell line growth inhibition, 48 h
Active and inactive are the calls of the source. Rule as the data show it: active = GI50 up to about 1.1 µM and inactive = higher.
Property Name: GI50

// GI50 lookup, compound = CC(=O)c1ccc(NC(=O)C(=O)CC(=O)c2sc(-n3nc(-c4ccccc4)cc3-c3ccccc3)nc2C)cc1 , result: > 100 µM (inactive)

Entry CN(Cc1cnc2nc(N)nc(N)c2n1)c1ccc(C(=O)NCS(=O)(=O)O)cc1 — recorded GI50 = > 100 µM (inactive)

In plain terms, CCCCCC(=O)OC[n+]1ccc2c(C)c3[nH]c4ccccc4c3c(C)c2c1 has a documented GI50 of 1.49 µM (inactive)

Per the records, this compound ( COC(=O)CCC(=O)Nc1cc(Cl)ccc1Cl ) has GI50 equal to > 100 µM (inactive)

According to the records, this compound Cc1cc(C)c(C(=O)c2no[n+]([O-])c2C(=O)c2c(C)cc(C)c(Br)c2C)c(C)c1Br displays GI50 of 10.9 µM (inactive)

Lookup result for COc1ccc(C2CC(=O)CC(c3ccc(OC)cc3)C23C(=O)NC(=S)NC3=O)cc1 (stereo unspecified) ; measured GI50: > 100 µM (inactive)

get_value(item= COc1ccc(OC)c2c(C)ccnc12 , readout=GI50) returns 4.1 µM (inactive)

Measured GI50, CC1(C)CCCC2CC2CCC(C)(C)C1=O (stereo unspecified) : 37.5 µM (inactive)

// recorded GI50 for Cc1ccc(/N=C2N=C(Cl)/C(=C\c3ccco3)N\2)cc1 : > 100 µM (inactive)

Lab note: Cc1ccc(C)c2c1C1CCCCC3(OCCCO3)C21O (stereo unspecified) gave GI50 of > 100 µM (inactive)

Lab book: GI50 of Cc1cc(C)nc(NS(=O)(=O)c2ccc(Nc3c4ccccc4nc4c(C(=O)NC(CO)(CO)CO)cccc34)cc2)n1 noted as 13.9 µM (inactive)

Value of measured GI50 for the entry CCOC(=O)c1nnc2c(C(=O)OCC)c3ccccc3n2c1N : 6.21 µM (inactive)

GI50 reported for this compound CC1(C)CC[C@]2(C(=O)O)CC[C@]3(C)C(=CC[C@@H]4[C@@]5(C)C[C@H](O)[C@H](O)[C@@](C)(C(=O)O)[C@@H]5CC[C@]43C)[C@@H]2C1 : > 100 µM (inactive)

Lab book: GI50 of Clc1cc2ncn(C3CCCO3)c2cc1Cl (stereo unspecified) noted as 24.5 µM (inactive)

Short answer for CN(C(=O)Cc1cc(Cl)c(Cl)cc1N=C=S)[C@H]1CCCC[C@@H]1N1CCCC1 : GI50 was 13.1 µM (inactive)

Short answer for CC1(C)N=C(N)N=C(N)N1c1cccc(C(=O)Nc2ccc(S(=O)(=O)F)cc2)c1 : GI50 was > 100 µM (inactive)

###

Answer each item with its documented GI50.
# Tested on: SNB-75
# Measurement Protocol: NCI tumour cell line growth inhibition, 48 h
The source made the active and inactive calls. Cut-off read from the data, not from the text of the source: active = GI50 up to about 1.1 µM and inactive = higher.

The reported value for COc1ccc(-c2csc(=[N+]3CCCCC3)s2)cc1 in terms of GI50 is 1.23 µM (inactive)

# GI50 (molecule: c1cc2nsnc2c2c[nH]cc12 ) is 50.6 µM (inactive)

// CC(C)(C)NNC(=O)/C(=C/c1ccc(Oc2ccc(Cl)c(Cl)c2)cc1)NC(=O)c1ccccc1 : GI50 value = > 100 µM (inactive)

Recorded result, CCOC(=O)c1ccc(-n2c(SCC)nc3sc(C)c(C)c3c2=O)cc1 , GI50: 36.7 µM (inactive)

Sure, the documented GI50 for O=C(O)c1ccc2c(c1)C(=O)N(c1ccc(S(=O)(=O)c3ccc(N4C(=O)c5ccc(C(=O)O)cc5C4=O)cc3)cc1)C2=O is > 100 µM (inactive)

Reported GI50 for CC1C[C@@]2(c3ccccc3)C(=O)CCC[C@H]2N1 (some centres undefined) was > 100 µM (inactive)

Record O=CN(O)CC(=O)O , field GI50: > 100 µM (inactive)

Sure, the documented GI50 for COC1=CC2(CC(OC)=C1OC)OC21COc2ccccc2C1=O (centres undefined) is 37.4 µM (inactive)

Documented GI50 of O=[N+]([O-])c1cc([As](Br)c2ccc(O)c([N+](=O)[O-])c2)ccc1O : 1.93 µM (inactive)

Form: molecule = CCOc1ccccc1NC(=O)CSc1nnc(Cc2ccccc2)o1 ; GI50 = 56.1 µM (inactive)

The molecule identified as CCOc1ccc(/C=C2\N=C(c3ccccc3)OC2=O)cc1 registered its GI50 at 83 µM (inactive)

GI50 measured on CCOC(=O)NC(=O)c1cn(CCCCCOC(=O)NCCCCCCNC(=O)OCCCCCn2cc(C(=O)NC(=O)OCC)c(=O)[nH]c2=O)c(=O)[nH]c1=O = > 100 µM (inactive)

Recorded GI50 (molecule CC(=O)C(=N\Nc1ccc(Cl)cc1)/C(C)=N/c1ccc(C)cc1 ): 44 µM (inactive)

Summary for this molecule, COc1ccccc1/C=C\c1cnnc2ccccc12 : GI50 is 9.02 µM (inactive)

###

# System: NCI-H226
# Measurement Protocol: NCI tumour cell line growth inhibition, 48 h
Active and inactive are the calls of the source. Rule as the data show it: active = GI50 up to about 1.1 µM and inactive = higher.
Pick from 1 = active, -1 = inactive when you respond.

Outcome? O=C1CC(NC2CC(=O)c3c(Br)sc(Br)c32)c2c(Br)sc(Br)c21 (configuration not stated)
-1

Look up the recorded call for COc1cc(S(=O)(=O)Nc2nc(-c3ccc(N4C(=O)C(CC(=O)O)SC4c4cccs4)cc3)cs2)ccc1Cl (configuration not stated) in this test.
-1

What is the recorded call for this compound in the test? CCOC(=O)Cn1c(=O)c2cc(-c3ccccc3)cc3c(Cl)nc4c(OC)c(OC)cc1c4c32
-1

Record request — test call for CO/N=C1\CC(NC(=O)CNC(=O)OC(C)(C)C)c2ccsc21 (configuration not stated)
-1

Call for entry CN(C)C(=S)NC(=S)Nc1ccc2ccccc2c1 :
-1

What call does the record list for O=C1OCC2=C1C(c1ccc(Cl)cc1)c1cc3c(cc1O2)OCO3 (configuration not stated) ?
-1

Which outcome was assigned to O=C(O)CCCSc1ccccc1 in this test?
-1

Which outcome was entered for the compound CC(C)(C)OC(=O)CC(NC(=O)OC(C)(C)C)C(=O)Oc1ccc([N+](=O)[O-])cc1 (configuration not stated) in this test?
-1

Recorded test outcome, item CCOC(=O)NC(=O)c1cn(CCCCCOC(=O)NCCCCCCNC(=O)OCCCCCn2cc(C(=O)NC(=O)OCC)c(=O)[nH]c2=O)c(=O)[nH]c1=O
-1

Which outcome did this test record for the compound Cc1ccc(NC(=O)C(=O)CC(=O)c2sc(Nc3c(C)cccc3C)nc2C)cc1C ?
-1

What did this assay record as the result for COC(=O)C(=O)C(C(=O)C(=O)Nc1ccccc1OC)c1nc2ccc([N+](=O)[O-])cc2nc1O (configuration not stated) ?
-1

Test call, this compound: CCOC(=O)C(=Cc1ccc(Oc2ccccc2)cc1)C(=O)OCC
-1

For CCOC(=O)c1ccc(-n2c(SCC)nc3sc(C)c(C)c3c2=O)cc1 , what call appears in the results of this test?
-1

Short answer needed: outcome of this test for Cn1c(-c2ccco2)ccc1-c1ccc(C=O)o1 ?
-1

Record request — test call for CSC(C1c2ccccc2N(C)C2=NC(=O)N(C)C(=O)C21Cl)S(=O)(=O)c1ccc(C)cc1 (configuration not stated)
-1

Check the results log: what was the call for NC(=O)C1=C(O)C[C@@H]2CC3Cc4cccc(O)c4C(=O)C3=C(O)[C@]2(O)C1=O (some centres not stated) ?
-1

Field: outcome | Entry: CC1(C)CCCC2(C)[C@@H]1CC[C@@]13CC(=O)[C@@](C)(CC[C@@H]21)C3 (some centres not stated)
-1

I would be grateful if you could indicate the recorded call for CCCCCC(=O)OC[n+]1ccc2c(C)c3[nH]c4ccccc4c3c(C)c2c1 .
-1

Record request — test call for O=C1C=C(c2ccccc2)OC1C1Sc2ccccc2NC1=O (configuration not stated)
-1

For this compound, state the assay outcome: CC(C)=CCNc1ncnc2c1c(C#N)cn2C1OC(CO)C(O)C1O (configuration not stated)
-1

Dear all, I need the recorded test outcome for CC(C)=CC(=O)C[C@H]1C(=O)O[C@@H]2C[C@H]3C(C)=CC(=O)[C@@H](O)[C@]3(C)[C@H]3[C@@]4(O)OC[C@]32[C@@H]1[C@@H](C)[C@H]4O , thank you.
1

I would be grateful if you could indicate the recorded call for c1cc2nsnc2c2c[nH]cc12 .
-1

Write down the call the test reported for this compound. Item: COc1c(CC=C(C)C)c(O)c(C(CC(C)C)c2c(O)c(C(C)=O)c(O)c3c2OC(C(C)(C)O)C3)c(O)c1C(C)=O (configuration not stated)
-1

Called result for O=C(NN1C(=O)C(Cl)C1c1ccc(Cl)cc1)c1c(Cl)c(Cl)c(Cl)c(Cl)c1-c1nc2ccccc2[nH]1 (configuration not stated)
-1

Look up the recorded call for CCOc1ccc(/C=C2\N=C(c3ccccc3)OC2=O)cc1 in this test.
-1

# lookup: test call for COC(=O)[C@H](Cc1ccccc1)NC(=O)OCC1OC(n2cc(C)c(=O)[nH]c2=O)CC1N=[N+]=[N-] (some centres not stated)
-1

Just curious, what result did O=CN(O)CC(=O)O get here?
-1
